- Test system: LU-139 (Small Cell Lung Carcinoma)
- ASSAY_EXPLANATION: combination Emax (second highest fraction inhibited in the dose matrix, 72 h); higher = more inhibition; extreme values may be limits of the assay
Values of combination Emax greater than or equal to 0.3 map to T; values below map to F.

q: Is it the case that CN(C)CCCOc1ccc(-c2ccc3ncc4c(c3c2)n(C2CCOCC2)c(=O)n4C)cn1 [AZD0156] + O=C(c1cc(Cc2n[nH]c(=O)c3ccccc23)ccc1F)N1CCN(C(=O)C2CC2)CC1 [Olaparib] (first compound max 3 µM, partner max 3 µM) has combination Emax reaching or exceeding 0.3?
a: F

q: Say whether C[C@@H]1COCCN1c1cc(C2([S@](C)(=N)=O)CC2)nc(-c2ccnc3[nH]ccc23)n1 [AZD6738] + Nc1ccn([C@@H]2O[C@H](CO)[C@@H](O)C2(F)F)c(=O)n1 [Gemcitabine] (first compound max 10 µM, 7x7, partner max 0.3 µM) shows combination Emax of 0.3 or more.
a: T

q: Has CC1(C)CCC(CN2CCN(c3ccc(C(=O)NS(=O)(=O)c4ccc(NCC5CCOCC5)c([N+](=O)[O-])c4)c(Oc4cnc5[nH]ccc5c4)c3)CC2)=C(c2ccc(Cl)cc2)C1 [Venetoclax] + CN(C)CCCOc1ccc(-c2ccc3ncc4c(c3c2)n(C2CCOCC2)c(=O)n4C)cn1 [AZD0156] (first compound max 1 µM, 7x7, partner max 1 µM) a recorded combination Emax greater than or equal to 0.3?
a: T

q: Quick check: does C=CCn1c(=O)c2cnc(Nc3ccc(N4CCN(C)CC4)cc3)nc2n1-c1cccc(C(C)(C)O)n1 [AZD1775] + Nc1ccn([C@@H]2O[C@H](CO)[C@@H](O)C2(F)F)c(=O)n1 [Gemcitabine] (first compound max 1 µM, partner max 0.3 µM) have combination Emax greater than or equal to 0.3?
a: T

q: Evaluate CS(=O)(=O)CCNCc1ccc(-c2ccc3ncnc(Nc4ccc(OCc5cccc(F)c5)c(Cl)c4)c3c2)o1 [Lapatinib] + Cn1cnc2c(F)c(Nc3ccc(Br)cc3Cl)c(C(=O)NOCCO)cc21 [Selumetinib] (first compound max 10 µM, 7x7, partner max 10 µM) : combination Emax at minimum 0.3?
a: F

q: Quick check: does CN(C)CCCOc1ccc(-c2ccc3ncc4c(c3c2)n(C2CCOCC2)c(=O)n4C)cn1 [AZD0156] + C[C@@H]1COCCN1C2=NC(=NC(=C2)C3(CC3)[S@](=N)(=O)C)C4=C5C=CNC5=NC=C4 [AZD6738] (first compound max 1 µM, 7x7, partner max 10 µM) have combination Emax greater than or equal to 0.3?
a: F

q: Say whether COc1cccc(OCCCN)c1-c1cc(Nc2cnc(C#N)cn2)n[nH]1 [Prexasertib] + CCc1c2c(nc3ccc(O)cc13)-c1cc3c(c(=O)n1C2)COC(=O)[C@]3(O)CC [SN-38] (first compound max 1 µM, 7x7, partner max 0.3 µM) shows combination Emax of 0.3 or more.
a: T

====

- Tested on: MHH-PREB-1 (B-Cell Non-Hodgkin's Lymphoma)
- ASSAY_EXPLANATION: combination Emax (second highest fraction inhibited in the dose matrix, 72 h); higher = more inhibition; extreme values may be limits of the assay
Criterion: combination Emax meeting or surpassing 0.5. Met: Satisfied. Not met: Not satisfied.

q: Please tell me: is the compound CN(CCO)CC[C@H](CSc1ccccc1)Nc1ccc(S(=O)(=O)NC(=O)c2ccc(N3CCC([C@@H](O)c4ccccc4-c4ccc(Cl)cc4)CC3)cc2)cc1S(=O)(=O)C(F)(F)F [AZD4320] + CCN(CCO)CCCOc1ccc2c(Nc3cc(CC(=O)Nc4cccc(F)c4)[nH]n3)ncnc2c1 [AZD2811] (first compound max 1 µM, 7x7, partner max 1 µM) at or over 0.5 in terms of combination Emax?
a: Not satisfied

q: Assess whether reported combination Emax for NC1(C(=O)N[C@@H](CCO)c2ccc(Cl)cc2)CCN(c2ncnc3[nH]ccc23)CC1 [Capivasertib] + CCN(CCO)CCCOc1ccc2c(Nc3cc(CC(=O)Nc4cccc(F)c4)[nH]n3)ncnc2c1 [AZD2811] (first compound max 10 µM, 7x7, partner max 1 µM) sits at 0.5 or higher.
a: Not satisfied

q: Hi team, for CCc1c2c(nc3ccc(O)cc13)-c1cc3c(c(=O)n1C2)COC(=O)[C@]3(O)CC [SN-38] + CN(C)CCCOc1ccc(-c2ccc3ncc4c(c3c2)n(C2CCOCC2)c(=O)n4C)cn1 [AZD0156] (first compound max 0.3 µM, 7x7, partner max 1 µM) , is the recorded combination Emax at or above 0.5?
a: Satisfied

q: Exam item: decide whether the reported combination Emax for NC1(C(=O)N[C@@H](CCO)c2ccc(Cl)cc2)CCN(c2ncnc3[nH]ccc23)CC1 [Capivasertib] + C[C@@H]1COCCN1C2=NC(=NC(=C2)C3(CC3)[S@](=N)(=O)C)C4=C5C=CNC5=NC=C4 [AZD6738] (first compound max 10 µM, 7x7, partner max 10 µM) is at least 0.5.
a: Satisfied

q: combination Emax >= 0.5 for C[C@@H](c1ccc2nccn2c1)n1nnc2ncc(-c3cnn(C)c3)nc21 [Savolitinib] + Cc1c2c(nn1C)CSCc1cc(n(C)n1)CSc1cc(c3ccccc3c1)OCCCc1c(C(=O)O)n(C)c3c-2c(Cl)ccc13 [AZD5991] (first compound max 1 µM, 7x7, partner max 1 µM) ?
a: Not satisfied

q: I'd appreciate it if you could say whether Cn1cnc2c(F)c(Nc3ccc(Br)cc3Cl)c(C(=O)NOCCO)cc21 [Selumetinib] + CC(C)n1c(=O)n(C)c2cnc3cc(F)c(-c4ccc(OCCCN5CCCCC5)nc4)cc3c21 [AZD1390] (first compound max 10 µM, 7x7, partner max 0.3 µM) has combination Emax at least equal to 0.5.
a: Not satisfied

q: Answer whether combination Emax of COc1nnc2ccc(N3CCC(c4ccc(OCCN5CCN(C)C(=O)[C@H]5C)cc4)CC3)nn12 [AZD5153] + C=CCn1c(=O)c2cnc(Nc3ccc(N4CCN(C)CC4)cc3)nc2n1-c1cccc(C(C)(C)O)n1 [AZD1775] (first compound max 1 µM, partner max 1 µM) is greater than or equal to 0.5.
a: Satisfied

q: // inclusive: combination Emax at least 0.5? input: C=CCn1c(=O)c2cnc(Nc3ccc(N4CCN(C)CC4)cc3)nc2n1-c1cccc(C(C)(C)O)n1 [AZD1775] + C[C@@H]1COCCN1C2=NC(=NC(=C2)C3(CC3)[S@](=N)(=O)C)C4=C5C=CNC5=NC=C4 [AZD6738] (first compound max 1 µM, partner max 10 µM)
a: Satisfied

q: Could you verify whether the entry Cc1cc2ncnn2cc1Nc1ncc2c(n1)n(C1CCOCC1)c(=O)n2C [AZD7648] + C[C@@H]1COCCN1C2=NC(=NC(=C2)C3(CC3)[S@](=N)(=O)C)C4=C5C=CNC5=NC=C4 [AZD6738] (first compound max 10 µM, 7x7, partner max 10 µM) shows combination Emax of no less than 0.5?
a: Satisfied

q: Form field: combination Emax at least 0.5? Entry: C[C@@H]1COCCN1c1cc(C2([S@](C)(=N)=O)CC2)nc(-c2ccnc3[nH]ccc23)n1 [AZD6738] + O=C(c1cc(Cc2n[nH]c(=O)c3ccccc23)ccc1F)N1CCN(C(=O)C2CC2)CC1 [Olaparib] (first compound max 10 µM, 7x7, partner max 10 µM)
a: Satisfied

q: Test whether the compound CC1(C)CCC(CN2CCN(c3ccc(C(=O)NS(=O)(=O)c4ccc(NCC5CCOCC5)c([N+](=O)[O-])c4)c(Oc4cnc5[nH]ccc5c4)c3)CC2)=C(c2ccc(Cl)cc2)C1 [Venetoclax] + C[C@@H]1COCCN1C2=NC(=NC(=C2)C3(CC3)[S@](=N)(=O)C)C4=C5C=CNC5=NC=C4 [AZD6738] (first compound max 1 µM, 7x7, partner max 10 µM) records combination Emax of 0.5 or higher.
a: Satisfied

q: Does CN(CCO)CC[C@H](CSc1ccccc1)Nc1ccc(S(=O)(=O)NC(=O)c2ccc(N3CCC([C@@H](O)c4ccccc4-c4ccc(Cl)cc4)CC3)cc2)cc1S(=O)(=O)C(F)(F)F [AZD4320] + Cc1cc2ncnn2cc1Nc1ncc2c(n1)n(C1CCOCC1)c(=O)n2C [AZD7648] (first compound max 1 µM, 7x7, partner max 10 µM) have a reported combination Emax of at least 0.5?
a: Not satisfied

q: Quick check: does CN(CCO)CC[C@H](CSc1ccccc1)Nc1ccc(S(=O)(=O)NC(=O)c2ccc(N3CCC([C@@H](O)c4ccccc4-c4ccc(Cl)cc4)CC3)cc2)cc1S(=O)(=O)C(F)(F)F [AZD4320] + C1CN(CCC1(C(=O)N[C@@H](CCO)C2=CC=C(C=C2)Cl)N)C3=NC=NC4=C3C=CN4 [Capivasertib] (first compound max 1 µM, 7x7, partner max 3 µM) have combination Emax greater than or equal to 0.5?
a: Not satisfied
